Entries and their measured purified protein yield per well follow.
# experiment: purified protein yield per well (BCA); higher = higher soluble expression
Please respond with the number in µg and leave the unit unwritten.

1. ADNPYQRGPDPTRASVAAVNGPFVNTSVSVPTGYGFNGGRIYYPTDTSQGTFGAIAISPGYTALFSAELAWMGPWLASHGFVVIGIETNSRNDFDTARGTQLLAALDYLTQQSPVRDRVDPNRLAVSGHSMGGGGALSAAIRRSSLKAAVGITPYSPSQNLANDRVPTMVISGQADTVVTPSYALGLYNSLPASTESVYLEVAGGDHGFMVGRSNPVLIRTMLPFLKMFVDNDSRYSQFLCPLLDSSGVVTYRSTCPLLPTNPTTPPPTGTPTPTPTSTPTPTPTPTTPPPSGSANE [ESM091] :: 336

Next up:
Task: What measured purified protein yield per well goes with DEIGQAPTASNITGNGSFATTSESISSLVSGFGGGRVYYPTATGRYPVIAISPGFTATWSSLAWIGPRLSSWGFVVVGIETNSIYDQPGSRGNQLLAALNWAVNSSSTAVRSRVDGSRRGVAGHSMGGGGTLEALAADTSGLVKAGVPLAPWNTDKIWSNVSEPVLIVGGQADTIAPVATHSVPFYNTLAGPKTYVELTGASHFFPQTTNATTSRALVSWFKRWLNQDSRFTPYTCGFGGLAVSDFRSNAC [ESM147] ?
Result: 75.4

----------
Entries and their measured purified protein yield per well follow.
# experiment: purified protein yield per well (BCA); higher = higher soluble expression

These recorded examples may help you get a feel for the data.
1. DSTSDQHGPDPTKASIEAERGPFDVARVTVPRAGASGFGGGTIYYPSSTEEGKFGAVAIAPGFTASQSSMAWFGPRLASQGFVVFTIDTVTTSDQPDMRGDELRAALRYLTGSSKVKDRIDADRLAVMGHSMGGGGTLEAAKDDPALRAAIPLTPWDLNKNFSRVKTPTMIIGGQSDTIAPVASHSEPFYRSLPDTASKAYLELRGASHFAPNMPNTTIAEYSISWLKRFVDDDRRYDQFLCPAPGASVQISQYLSTCPY [TEP166] :: < 25 µg
2. RPSAENPYERGPAPTVASIEAARGPFGTAETRVSATAVRGFGGGTIYYPTDTSQGTFGAVAVAPGFTASQSSMSWLGPRLASQGFVIFTIDTLGRYDQPAARGDQLLAALDYLTQSSSVRGRIDGSRLAVMGHSMGGGGSLEAAKDRPALQAAIPLTPWNATKNWSSVRTPTLIIGAERDSVASVAAHSEPFYASLPSTLDRAYLELAGASHFAPNVANVTIAKYSISWLKRFVDNDTRYEQFLCPLPSGSAISEYRGNCPHQG [TEP152] :: < 25 µg

Would you kindly look at the next entry?
Task: Looking for the measured purified protein yield per well of VENGPAPTVSSVRADAGSYSVSKTSYADNVTPGFGAATVYAPSNTTGQKFGVVSFAPGWTENQSAVDWIARRTASFGFVTIVFDVNNTFFDFPAARAPQLIAALNFVTGTSNQRNLADASREAVVGHSMGGGATLDAARANPSLKATVGLAPWNPGISYSDVTVPSLEIGAQNDFIAGVSNNARYFYNSLPGSTPKAYTEMKSFGHLQTNYPSAQVGAATVSWLKRYVDGDTRYAPFICGAHTGVQNSELSAYASNC [ESM168] , can you help?
Result: < 25 µg

----------
# experiment: PET hydrolysis, aromatic products released after 48 h (umol product/mg enzyme); higher = more PET depolymerization activity
# conditions used: substrate: cryPow; 60 °C; pH 7.5
The following sequences are shown together with reported PET hydrolysis values.

Examples with their reported PET hydrolysis follow.
1. AVHGPDPTDALLEASRGPYATAQIDVSALAVSGFGGGTIYYPTTTSEGTFGGVAIAPGYTADKSSLAWLAARLASHGFVVFNIDTLTRLDQPDSRGRQLLAALDYLTQRSSVRSRVDASRLGVMGHSMGGGGTLEAAVSRPSLRAAVPLTPWNLDKTWPEVRTPTLIIGADLDTIAPVLTHAEPFYASLPSTLDKAYLELNNATHFAPNITDTTIGKYAVAWMKRFIDDDTRYNRFLCPGPSWSLSVEEYRSTCPF [TEP061] :: < 3
2. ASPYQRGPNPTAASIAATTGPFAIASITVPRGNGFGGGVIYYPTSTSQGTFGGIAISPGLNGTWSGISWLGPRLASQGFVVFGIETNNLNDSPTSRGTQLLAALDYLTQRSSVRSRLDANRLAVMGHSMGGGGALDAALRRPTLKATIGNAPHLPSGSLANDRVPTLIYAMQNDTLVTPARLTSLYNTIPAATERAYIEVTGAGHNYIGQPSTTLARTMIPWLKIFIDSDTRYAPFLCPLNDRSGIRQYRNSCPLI [ESM128] :: 41.5

Now examine the next entry.
Task: # PET hydrolysis lookup, item ADNPYQRGPAPTNTSIEATRGTYAVSTKTISALSARGFGGGTIYYPTSTADGTFGVVAISPGYTASQSTIAWLGPRLASFGFVVVTIDTTTRYDQPTSRGSQLLAALDQAIGDSTVGPRIDATRQAVVGHSMGGGGTLEAAKTRRSLEAAVPLTGWNLDKTWPEVEAATLVIGAQNDTVAPTTSHSIPFYNSLSGAERKAYLELRGASHFAPVTSNTTIAKHTLSWLKRYVDDDTRYEQFISPGPSTAIGSPVSDYRVN [DP022]
Result: < 3

----------
# experiment: purified protein yield per well (BCA); higher = higher soluble expression
Reported purified protein yield per well values for a set of sequences
Give the value, in units of µg, as a plain number.

1. ADNPYQRGPDPTPASVSANRGTFATAQISVPAGNGFGGGVIYHPTDTSQGTFGAIAVVPGYTATWAAEGAWMGHWLASFGFVVIGIDTNSRNDWDTARGTQLLAALDYLTQRSPVRDRVDANRTAVMGHSMGGGGAMHAALQRPSLKAAIGLAPFSPSQNLTTTRVPTMLLAGQSDTTTTPASILNLYNGIPAATEKAYLELTGAGHGFPTSNNPTMMRNVIPWLKIFVDSDTRYTQFLCSLSNWDGIRAYQSTCPLVPSPVPTTTSTTSTTTTISTTTTTPAPGDACSATYRTTNSWPGGYQAEVTVTAGNTAVNGWNVQWTLGSGQTVTQVWNGTLNVSGSTASVRNASYNGSLQANTSTTFGFIGGGTPPTSSLSCTSP [ESM035] :: 510

# ---- query sequence ----
Task: Using the record for VQIGPAPTKASLEASRGPFTVATTRLSANGHGGGTIYYPTNAGAKVGVIAIVPGYLSYQSSIEWWGPRLASHGFAVVTIDTLTIYDQPSSRSSQQLRALDQVVALGSKSTSPLYNKVDGSRTGVMGWSMGGGGSLISAQNRPSIKAAAPQAPWNTTSNFSSLTVPTLIFACQADVVAPILSHAVPFYNSMSRNPKQYLERTAGDHFCFNNANPTVGLKGVAWMKRFIDGDTRYTSFACSNPNALGFSSFRTERCS [ESM053] , report its purified protein yield per well.
Result: 103

----------
# experiment: purified protein yield per well (BCA); higher = higher soluble expression
readout kind: purified protein yield per well

Task: For CSGSTPTAPAAPAPKATAAPNDRPAPTAQVPRSFERGPAPSEKSVTAKRGPFAFEKIEVPAGSGPGFNKGTIYAPTDTSRGTFGAVVMSPGFASPHTWIDWYGPRLASQGFVVMMLETNTLFDVPLLRGRQIVAALDYLTARSVVRGRVDPSRTAVMGHSMGGGGTLEAARQRPGLKAAVPLAPWNPDYNWGGVVVPTMIIGAQRDVIAPTALMSEAYYNRLTAAPEKAYLVLRGAGHLTFMSPNATIAKYVISWMKRFVDNDSRYDRFLCPPPKPRGLLTVYRGTCPTG [DP037] , what is its reported purified protein yield per well?
Result: < 25 µg

Task: Repeat for the following sequence: GGGGGGGGGGNSGDLPAPNPCTANCGFEIGPNPSLSFLRNGPGPLPVSTTTVPRSVDGFGGGTIYYPSNVSREMAAITISPGFTARQGGVAWWGSALASHGFVVMTIDTNSRFDQPASRGRQLDSALSYLISESDRRNSPISGLVDESRLATMGHSMGGGGSLHSASRNRISAAMPLAPWNQSGSGAFNNINVPTMILACESDTTARVGTHAIPFYNRIPNSTDKVYLEINNGNHSCSTGRSGNDRALLRTYGVSWMKRFLDKDGRYNQFLCGPNHTANSSISDFRDTCVF [DP063]
Result: < 25 µg

----------
# experiment: purified protein yield per well (BCA); higher = higher soluble expression
Known purified protein yield per well of a selection of sequences

1. APPARVAALATTAYQRGPAPTLSGVRAALGPFSYSTASVSAAATGYTFGGGTVYYPDDTSQGTFGGIAVTPGYTGTEGSIAWLGPRLASQGFVVITIATKSLYDQPTARGQQLLAALDYLKTYSPAAVRQRLDPQRLAVSGHSMGGGGALYAVWSRPSLKAAVPLAPYHTIKNWSAITVPTLIEAGTADTVTPVGTFAEPIYQSLTGASERAYAEVAGANHLTFTAENPLIGGLEVAWMKRFVDDDARYDQFLCPAPTDPGLTEYRDSCPTS [TEP101] :: 377 µg
2. MIYYPTDTSQGTFGAIAISPGYTALFSVELAWMGPRLASQGFVVIGIETNDRNDFDTARGTQLLAALDYLTGQSSVRSRVDPNRLAVAGHSMGGGGAFSAALRRPALKAAVGFTPFSPSQNLTNMQVPALLYSGQYDTVTTPSSVSNLYNGLPSTTEGAYIEAAGLDHSFPTRPNTLLMRTMIPWVKIFLDNDLRYTQFLCPLMDSSGVLQYRNTCPLVPPGLPSPSPTTAPPTTAPPTTAPPTTAPPTTAPPTTAPPTTAPPTTAPPSGACTATYQTIGSWPGGFQGEVTVRAGNSAINGWTVGWSLGSGQSITQIWNGTLSTSGSSVSVRNVSYNGSLPAAGTATFGFLGSGSPSTPSTVTCTSP [ESM001] :: < 25 µg
3. AEDNPHERGPAPTQQSIEAEKGPFEVDKVTVPGGDGFAGGTIYFPKDTSKGKFGGVAISPGFMSFEAMVSWYGPRLASQGFVVFTIGTFTPMDIPSSRADQLLASLKFLVEKSPAKDRVDGTRLALMGHSMGGGGTLHAAARTPGLQAAIPLTPWELTSDFSKVQVPTLVFTGQADFVAPASMGKSFYQSIPDSTEKGYVELAGGSHFDPLFPNVTYAKYSISWLKRFVDNDTRYDQFLCPVPKDPKLSAIEETCPLG [DP013] :: < 25 µg
4. YILASGFVGQLVAQTPSLEALGRQGPYQVAWYTQLPSVPEFSGATLYFPANKAQDFGGVVISPGFFERQENISWWGNYLASHGFAVITFDTNELRDLPPLRADALLATIDLLRGENSRQGSAVRGKILEDSMAVMGHSMGGAAALLLANENSNEIKAAIPFNAGGLRNANFSAVAVPTLVIAGEIDRLAPVNEHAWSHYQTLT [TEP088] :: < 25 µg
5. AETTTQHGPDPTEGSITAPTGPFQTDQKTVPRSSVQGFGGGTIYYPTETSQGTFGAVTIAPGYTAGKESLAWLGPRLASQGFVVFTIDTITTSDQPDSRAKQLMASLDYLTGDSDVRDRIDTSRLAVMGHSMGGGGTLEAARDNRNLKAAIPMTPWDTTKDFSGVQTPTLIIGAQNDTIAPVAQHAKPFYGSLPDDPGKAYLELAGASHFAPNQDNTTIAKSSIAWLKRFVDDDTRYDQFLCPPPQDAEISDYQSTCPY [TEP037] :: 77 µg

Please look at the following sequence next.
Task: Record request: purified protein yield per well value, item MGFGGGTIYYPTTSGQYGAIAVCPGFTGTSSSISWFARRLATHGFVTIAMNTTTTLDYPSSRATQLAAALRYLLNSSSSTIRSRIRTADRGVAGHSMGGGGTLIASANDSTLRAGIPMTPWNTYTSFSSVRVPQMIFGADGDTIAPYATHARPFYNSISLAEKAYALLNGAGHFTPNSTDQRIRRYGVAFAKRFVDGDTRYNPFLCGAEHTAYATSSRFQTYLSNCPY [ESM185]
Result: < 25 µg
